Reported Kd is given for each of the following compounds.
Target: RecQ-WH (Escherichia coli, UniProt P15043)
Construct: coding for residues 408– 523 of E. coli RecQ; made in house; host or cells: E. coli BL21(DE3)
Sequence (P15043 408-523): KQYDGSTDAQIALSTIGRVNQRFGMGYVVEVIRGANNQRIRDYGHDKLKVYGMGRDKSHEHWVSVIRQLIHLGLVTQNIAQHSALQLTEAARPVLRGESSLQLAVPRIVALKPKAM
Assay: Pull-down assay with immobilized protein and LSM libraries
Parameters: species or system E. coli
Conditions: H14 library; 1:1 binding assumed; read-out: Surface mapping KD (apparent)
Give a bare numeral; the unit µM is implied.

A selection of reference data follows.
{"Smiles Code": "C[C@@H](CC(=O)N[C@H]1CCCC[C@@H]1C(N)=O)NC(=O)[C@H]1CCCC[C@@H]1NC(=O)[C@H]1CCCC[C@@H]1NC(=O)C[C@H](CCCNC(=N)N)NC(=O)[C@H]1CCCC[C@@H]1N", "Test Result": 456}
{"Smiles Code": "CSCC[C@@H](CC(=O)N[C@H]1CCCC[C@@H]1C(=O)N[C@H]1CCCC[C@@H]1C(=O)N[C@H](CC(=O)N[C@H]1CCCC[C@@H]1C(N)=O)Cc1ccccc1)NC(=O)[C@H]1CCCC[C@@H]1N", "Test Result": 304}
{"Smiles Code": "CSCC[C@@H](CC(=O)N[C@H]1CCCC[C@@H]1C(N)=O)NC(=O)[C@H]1CCCC[C@@H]1NC(=O)[C@H]1CCCC[C@@H]1NC(=O)C[C@H](CC(C)C)NC(=O)[C@H]1CCCC[C@@H]1N", "Test Result": 233}
{"Smiles Code": "CC(C)C[C@@H](CC(=O)N[C@H]1CCCC[C@@H]1C(=O)N[C@H]1CCCC[C@@H]1C(=O)N[C@H](CC(=O)N[C@H]1CCCC[C@@H]1C(N)=O)Cc1ccccc1)NC(=O)[C@H]1CCCC[C@@H]1N", "Test Result": 186}
{"Smiles Code": "CSCC[C@@H](CC(=O)N[C@H]1CCCC[C@@H]1C(=O)N[C@H]1CCCC[C@@H]1C(=O)N[C@@H](CCCNC(=N)N)CC(=O)N[C@H]1CCCC[C@@H]1C(N)=O)NC(=O)[C@H]1CCCC[C@@H]1N", "Test Result": 457}
{"Smiles Code": "C[C@@H](O)[C@@H](CC(=O)N[C@H]1CCCC[C@@H]1C(=O)N[C@H]1CCCC[C@@H]1C(=O)N[C@H](CC(=O)N[C@H]1CCCC[C@@H]1C(N)=O)Cc1c[nH]c2ccccc12)NC(=O)[C@H]1CCCC[C@@H]1N", "Test Result": 288}

Answer briefly: Kd recorded on RecQ-WH (Escherichia coli, UniProt P15043) for `N=C(N)NCCC[C@@H](CC(=O)N[C@H]1CCCC[C@@H]1C(=O)N[C@H]1CCCC[C@@H]1C(=O)N[C@@H](CO)CC(=O)N[C@H]1CCCC[C@@H]1C(N)=O)NC(=O)[C@H]1CCCC[C@@H]1N`
403

Answer briefly: Kd recorded on RecQ-WH (Escherichia coli, UniProt P15043) for `CC[C@H](C)[C@@H](CC(=O)N[C@H]1CCCC[C@@H]1C(N)=O)NC(=O)[C@H]1CCCC[C@@H]1NC(=O)[C@H]1CCCC[C@@H]1NC(=O)C[C@H](CCC(=O)O)NC(=O)[C@H]1CCCC[C@@H]1N`
444

Answer briefly: Kd recorded on RecQ-WH (Escherichia coli, UniProt P15043) for `CSCC[C@@H](CC(=O)N[C@H]1CCCC[C@@H]1C(N)=O)NC(=O)[C@H]1CCCC[C@@H]1NC(=O)[C@H]1CCCC[C@@H]1NC(=O)C[C@H](CCSC)NC(=O)[C@H]1CCCC[C@@H]1N`
455
